Numbers sourced from paper PMC8019892.

Item-by-item account of melting point

NC(=O)NNC(=O)c1ccc(NC(N)=O)cc1 ... 226 to 228 °C (dec.)
O=C(NNC(=O)c1ccc(NC(=O)c2ccc(F)cc2)cc1)c1ccc(F)cc1 [Compound 10e] ... 322 to 325 °C
O=C(NN1C(=O)CCC1=O)c1ccc(N2C(=O)CCC2=O)cc1 ... 273 to 275 °C
NC(=O)NNC(=O)c1ccc(NC(=O)c2ccc(Cl)cc2)cc1 ... 325 to 327 °C
O=C(NNC(=O)c1ccc(NC(=O)c2ccccc2)cc1)c1ccccc1 [Compound 10a] ... 265 to 267 °C
O=C(NNC(=O)c1ccc([N+](=O)[O-])cc1)c1ccc(NC(=O)c2ccc([N+](=O)[O-])cc2)cc1 [Compound 10f] ... 287 to 289 °C
O=C(NNS(=O)(=O)c1ccccc1)c1ccc(NS(=O)(=O)c2ccccc2)cc1 ... 239 to 241 °C
NC(=O)NNC(=O)c1ccc(NC(=O)c2ccccc2)cc1 ... 283 to 285 °C
O=C(NNC(=O)c1ccc(NC(=O)c2ccc(Cl)cc2)cc1)c1ccc(Cl)cc1 [Compound 10c] ... 315 to 318 °C
O=C(O)CCC(=O)NNC(=O)c1ccc(NC(=O)CCC(=O)O)cc1 ... 185 to 187 °C

Let us move to another entry and its melting point.
Entry O=C(NNC(=O)c1cccc(Cl)c1)c1ccc(NC(=O)c2cccc(Cl)c2)cc1 [Compound 10b] — recorded melting point = 273 to 275 °C

###

target entity: fatty acid amide hydrolase (FAAH) (Homo sapiens, UniProt O00519)
Construct: purchased Cayman 10005196
Sequence (O00519 whole entry): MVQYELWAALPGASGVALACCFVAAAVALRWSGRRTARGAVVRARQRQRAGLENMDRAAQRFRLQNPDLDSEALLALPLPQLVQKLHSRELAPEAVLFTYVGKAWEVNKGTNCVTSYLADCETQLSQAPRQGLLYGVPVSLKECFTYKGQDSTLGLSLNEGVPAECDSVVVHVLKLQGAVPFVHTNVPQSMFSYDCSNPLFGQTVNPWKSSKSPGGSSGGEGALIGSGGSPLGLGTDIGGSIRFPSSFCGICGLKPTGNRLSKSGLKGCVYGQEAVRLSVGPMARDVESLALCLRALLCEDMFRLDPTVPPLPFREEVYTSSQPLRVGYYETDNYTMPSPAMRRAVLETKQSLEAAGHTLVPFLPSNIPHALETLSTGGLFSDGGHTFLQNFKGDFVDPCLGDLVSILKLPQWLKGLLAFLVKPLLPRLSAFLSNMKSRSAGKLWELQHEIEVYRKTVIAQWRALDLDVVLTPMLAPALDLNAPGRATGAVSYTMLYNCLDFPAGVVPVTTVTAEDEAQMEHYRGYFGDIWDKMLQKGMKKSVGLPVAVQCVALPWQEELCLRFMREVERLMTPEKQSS
assay text: Cayman plate-based fluorometric FAAH assay kit
Format: biochemical
condition notes: concentrations 0.1, 5, 10, 20, 50 and 100 nM; fluorometric FAAH assay; read-out: IC50
pIC50: −log10 of the molar value.
measure name: pIC50

O=C(NNC(=O)c1ccc(NC(=O)c2ccc(Cl)cc2)cc1)c1ccc(Cl)cc1 [Compound 10c] ... 7.91
O=C(NNC(=O)c1ccccc1C(=O)O)c1ccc(NC(=O)c2ccccc2C(=O)O)cc1 [Compound 12] ... 8.79
O=C(NNC(=O)c1ccc(NC(=O)c2ccccc2)cc1)c1ccccc1 [Compound 10a] ... 7.70

a = COc1ccc(C(=O)NNC(=O)c2ccc(NC(=O)c3ccc(OC)cc3)cc2)cc1 [Compound 10d]
b = O=C(NNC(=O)c1cccc(Cl)c1)c1ccc(NC(=O)c2cccc(Cl)c2)cc1 [Compound 10b]
pIC50 comparison. Which is larger, a or b ? Pick one and reply with its label.
a

###

target entity: fatty acid amide hydrolase (FAAH) (Homo sapiens, UniProt O00519)
Construct: purchased Cayman 10005196
assay text: Cayman plate-based fluorometric FAAH assay kit
Assay type: biochemical
condition notes: 100 nM compound; 5 min incubation, Tris/HCl pH 9.0, 37 °C; substrate AMC-arachidonoyl amide; read-out: %inhibition at 100nM
measure name: inhibition at 0.1 µM (%)

NC(=O)NNC(=O)c1ccc(NC(=O)c2ccccc2)cc1 [Compound 5a] ... 58.5
O=C(NNC(=O)c1ccc(NC(=O)c2ccc(Cl)cc2)cc1)c1ccc(Cl)cc1 [Compound 10c] ... 77.3
O=C(NNC(=O)c1ccc(NC(=O)c2ccc(F)cc2)cc1)c1ccc(F)cc1 [Compound 10e] ... 38.9
NC(=O)NNC(=O)c1ccc(NC(=O)c2ccc(Cl)cc2)cc1 [Compound 5b] ... 63.4
O=C(NNS(=O)(=O)c1ccccc1)c1ccc(NS(=O)(=O)c2ccccc2)cc1 [Compound 13] ... 31.4
O=C(NN1C(=O)CCC1=O)c1ccc(N2C(=O)CCC2=O)cc1 [Compound 9] ... 45.1
COc1ccc(C(=O)NNC(=O)c2ccc(NC(=O)c3ccc(OC)cc3)cc2)cc1 [Compound 10d] ... 77.3

1 = O=C(NN1C(=O)c2ccccc2C1=O)c1ccc(N2C(=O)c3ccccc3C2=O)cc1 [Compound 8]
2 = O=C(NNC(=O)c1cccc(Cl)c1)c1ccc(NC(=O)c2cccc(Cl)c2)cc1 [Compound 10b]
Pick one: 1 or 2 . Which has the bigger inhibition at 0.1 µM number? Field: selected label. Fill in the label of the entry you choose.
2
